meta.source: ChEMBL document CHEMBL6182851

system: A549; assay: cells; conditions: Homo sapiens, A549, 48 h
Description: Antitumor activity against human A549 cells assessed as inhibition of cell viability incubated for 48 hrs by MTT assay
Parameter: IC50

CN(C)C(=O)c1cc2cnc(Nc3ccc(N4CCN(C(=O)COc5ccc(-c6nc7cc(Cl)ccc7c(=O)[nH]6)cc5)CC4)cn3)nc2n1C1CCCC1 > 40 µM
COc1cc(OC)c2c(=O)[nH]c(-c3cc(Br)c(OCC(=O)N4CCN(c5ccc(Nc6ncc7cc(C(=O)N(C)C)n(C8CCCC8)c7n6)nc5)CC4)c(Br)c3)nc2c1 16.8 µM

Now let's try a different one.
Ask: Reported IC50 for CN(C)C(=O)c1cc2cnc(Nc3ccc(N4CCN(C(=O)COc5ccc(-c6nc7ccc(F)cc7c(=O)[nH]6)cc5F)CC4)cn3)nc2n1C1CCCC1 : what is it?
Result: > 40 µM

###

experiment: Half life in male Sprague-Dawley rat at 5 mg/kg, iv measured up to 24 hrs by LC-MS/MS analysis; format: ADME, organism-based; conditions: in vivo
Parameter: half-life (h)
Your answer is read as h, so omit the unit and give the number.

Ask: State the recorded half-life for this entry: COc1cc(-c2nc3ccc(F)cc3c(=O)[nH]2)cc(OC)c1OCC(=O)N1CCN(c2ccc(Nc3ncc4cc(C(=O)N(C)C)n(C5CCCC5)c4n3)nc2)CC1
Result: 7.42

###

assay: Apparent volume of distribution in male Sprague-Dawley rat at 5 mg/kg, iv measured up to 24 hrs by LC-MS/MS analysis; type: ADME, organism-based; settings: in vivo, read-out: Vz
Parameter: Vd (L/kg)
// note: answer is a bare numeric in L/kg

Ask: State the recorded Vd for this entry: COc1cc(-c2nc3ccc(F)cc3c(=O)[nH]2)cc(OC)c1OCC(=O)N1CCN(c2ccc(Nc3ncc4cc(C(=O)N(C)C)n(C5CCCC5)c4n3)nc2)CC1
Result: 14.1

###

experiment: MRT (0 to infinity) in male Sprague-Dawley rat at 5 mg/kg, iv measured up to 24 hrs by LC-MS/MS analysis; assay type: ADME, organism-based; conditions: in vivo
Parameter: MRT inf (h)
Unit h implied. Number only.

Ask: Recorded MRT inf of COc1cc(-c2nc3ccc(F)cc3c(=O)[nH]2)cc(OC)c1OCC(=O)N1CCN(c2ccc(Nc3ncc4cc(C(=O)N(C)C)n(C5CCCC5)c4n3)nc2)CC1 , please.
Result: 3.04

###

experiment: AUC (0 to t) in male Sprague-Dawley rat at 5 mg/kg, iv measured up to 24 hrs by LC-MS/MS analysis; assay type: ADME, organism-based; settings: in vivo
Parameter: AUC(0-t) at 24 h (ng·h/mL)
Field: numeric (ng·h/mL). Do not append units.

Ask: What does the data say about its AUC(0-t) at 24 h? Entry: COc1cc(-c2nc3ccc(F)cc3c(=O)[nH]2)cc(OC)c1OCC(=O)N1CCN(c2ccc(Nc3ncc4cc(C(=O)N(C)C)n(C5CCCC5)c4n3)nc2)CC1
Result: 3780

###

experiment: AUC (0 to infinity) in male Sprague-Dawley rat at 5 mg/kg, iv measured up to 24 hrs by LC-MS/MS analysis; type: ADME, organism-based; details: in vivo
Parameter: AUC(0-inf) (ng·h/mL)
Write down the numeric answer in ng·h/mL and omit the unit.

Ask: What AUC(0-inf) value was documented for this molecule, COc1cc(-c2nc3ccc(F)cc3c(=O)[nH]2)cc(OC)c1OCC(=O)N1CCN(c2ccc(Nc3ncc4cc(C(=O)N(C)C)n(C5CCCC5)c4n3)nc2)CC1 ?
Result: 3860
